test: in vitro; settings: human
property measured: CC50
Please answer in the form of a number followed by its unit of measurement.

Record CC(C)(O)CNc1nc(Nc2ccnc(C(F)(F)F)c2)nc(-c2cccc(C(F)(F)F)n2)n1 [Enasidenib] . Reported CC50: 24.9 µM

----------
test: Cell viability assay (CellTiter-Glo), Huh7 cells; conditions: human
property measured: CC50 at 72 h (µM)
Please reply with the bare figure in µM and do not write the unit itself.

The compound listed as `CN1CCN(CCCN2c3ccccc3Sc3ccc(C(F)(F)F)cc32)CC1` has a reported CC50 at 72 h of 7.79

Reported CC50 at 72 h of `COc1ccc2cc1Oc1ccc(cc1)C[C@H]1c3c(cc4c(c3Oc3cc5c(cc3OC)CCN(C)[C@@H]5C2)OCO4)CCN1C` : 24

----------
assay: in vitro; conditions: human
property measured: CC50

// field: CC50; key: `CNC(=O)c1cc(Oc2ccc(NC(=O)Nc3ccc(Cl)c(C(F)(F)F)c3)cc2)ccn1` ; value = 12.9 µM

Short answer for `COc1cc2c(cc1OC)[C@@H]1C(=O)c3ccc4c(c3O[C@@H]1CO2)C=CC(C)(C)O4` : CC50 was 34.7 µM
